- Tested on: Matricaria inodora
- Assay: Post-emergence herbicidal action, MATIN
- Type: in vivo
- Parameters: key: % herbicidal action vs untreated; 100 = plants died, 0 = like control
- Conditions used: post-emergence, dosage 80 g/ha
// herbicidal action MATIN lookup, one value per entry
Measured metric: herbicidal action MATIN (%)

{"Compound": "CCSCc1c(C(F)(F)F)ccc(C(=O)Nc2nnnn2CC)c1Br", "Readout number": 100}
{"Compound": "CCCn1nnnc1NC(=O)c1ccc(C(F)(F)F)c(CSCC2CC2)c1Cl", "Readout number": 100}
{"Compound": "CCSCc1c(C(F)(F)F)ccc(C(=O)Nc2nnnn2C)c1C", "Readout number": 100}
{"Compound": "CSc1c(C(=O)Nc2nnnn2C)ccc(C(F)(F)F)c1C[S+](C)[O-] (centres unmarked)", "Readout number": 100}
{"Compound": "CCn1nnnc1NC(=O)c1ccc(C(F)(F)F)c(C[S+]([O-])CC)c1Cl (centres unmarked)", "Readout number": 90}

Reference for the values: patent US12492173B2
